The values you see were collected from patent US9115122B2.

Measured Cell Viability (% of Vehicle) HeLa values are reported for all entries that follow.
- System: HeLa cervical carcinoma cells
- test-details: Cell proliferation WST-1 assay, single dose (Example 4)
- Type: cell-based
- test-settings: 100 μM, 48 hours

A selection of reference data follows.
| compound | target-desc | reported-value |
| --- | --- | --- |
| CCOc1ccc(/C=C2\SC(=O)N(CCCl)C2=O)cc1 [Compound 28f] | HeLa cervical carcinoma cells | 87 ± 4 % of Vehicle |
| CCOc1ccc(/C=C2\SC(=O)N(CCNCc3ccccc3)C2=O)cc1 [Compound 23d] | HeLa cervical carcinoma cells | 37 ± 1 % of Vehicle |
| CCOc1ccc(/C=C2\SC(=O)N(Cc3ccccn3)C2=O)cc1 [Compound 28j] | HeLa cervical carcinoma cells | 89 ± 5 % of Vehicle |
| CCOc1ccc(/C=C2\SC(=O)N(CCN)C2=O)cc1 [Compound 76] | HeLa cervical carcinoma cells | 53 ± 3 % of Vehicle |
| CCCN1C(=O)S/C(=C\c2ccc(OCC)cc2)C1=O [Compound 28d] | HeLa cervical carcinoma cells | 96 ± 4 % of Vehicle |

Incoming: Would you kindly share the measured Cell Viability (% of Vehicle) HeLa for CCOc1ccc(/C=C2\SC(=O)N(CCN(Cc3ccc(C#N)cc3)Cc3cccc(C#N)c3)C2=O)cc1 [Compound 24c] ?
Outgoing: 97 ± 8 % of Vehicle

Incoming: Try this compound next: CCOc1ccc(/C=C2\SC(=O)N(CCNC(=O)OC)C2=O)cc1 [Compound 26a]
Outgoing: 84 ± 4 % of Vehicle

Incoming: Try this compound next: CCOc1ccc(/C=C2\SC(=O)N(Cc3cccnc3)C2=O)cc1 [Compound 28k]
Outgoing: 80 ± 2 % of Vehicle

Incoming: Try this compound next: NCCN1C(=O)S/C(=C\c2ccc(OCc3ccccc3)cc2)C1=O [Compound 30h]
Outgoing: 59 ± 3 % of Vehicle

----------
- Tested on: RPMI-7951 melanoma cells
- test-details: Cell proliferation WST-1 assay, single dose (Example 4)
- Type: cell-based
- test-settings: 100 μM, 48 hours
- Experimental: In addition, compounds were tested in RPMI-7951 cells, which also contain mutated BRaf and are resistant to BRaf inhibitors due to the overexpression of MAP3K8 (the gene encoding COT/Tp12) that provides an alternative mechanism to indirectly or directly activate ERK proteins. […] Cell proliferation was evaluated by water soluble tetrazolium-1 (WST-1) assay as previously described. […] After incubation, WST-1 reagent was added and absorbance was read at 450 nm with background subtraction taken at 650 nm. […]
readout-type: Cell Viability (% of Vehicle) RPMI-7951

| compound | reported-value |
| --- | --- |
| CCOc1ccc(/C=C2\SC(=O)N(CCNCc3ccccc3)C2=O)cc1 [Compound 23d] | 2.5 ± 0.3 % of Vehicle |
| CCOc1ccc(/C=C2\SC(=O)N(CCNS(=O)(=O)c3cn(C)cn3)C2=O)cc1 [Compound 27c] | 118 ± 6 % of Vehicle |

Proceed to the following item.
Incoming: Would you kindly share the measured Cell Viability (% of Vehicle) RPMI-7951 for CCOc1ccc(/C=C2\SC(=O)N(Cc3ccccn3)C2=O)cc1 [Compound 28j] ?
Outgoing: 114 ± 5 % of Vehicle

----------
- Tested on: HeLa cervical carcinoma cells
- test-details: Cell proliferation WST-1 assay, single dose (Example 4)
- Assay type: cell-based
- test-settings: 100 μM, 48 hours
readout-type: Cell Viability (% of Vehicle) HeLa

| compound | readout-type | reported-value |
| --- | --- | --- |
| CCOc1ccc(/C=C2\SC(=O)N(CCNC(=O)OCC(C)C)C2=O)cc1 [Compound 26c] | Cell Viability (% of Vehicle) HeLa | 95 ± 3 % of Vehicle |
| CCOc1ccc(/C=C2\SC(=O)N(Cc3ccc(N)cc3)C2=O)cc1 [Compound 28o] | Cell Viability (% of Vehicle) HeLa | 89 ± 9 % of Vehicle |

Incoming: Give the reported Cell Viability (% of Vehicle) HeLa for CCOc1ccc(/C=C2\SC(=O)N(CC(=O)O)C2=O)cc1 [Compound 28h] (system: HeLa cervical carcinoma cells).
Outgoing: 104 ± 3 % of Vehicle

Incoming: Try this compound next: CCOc1ccc(/C=C2\SC(=O)N(CCNCC(C)C)C2=O)cc1 [Compound 23c]
Outgoing: 3.7 ± 0.4 % of Vehicle

Incoming: Try this compound next: CCOc1ccc(/C=C2\SC(=O)N(CC(C)N)C2=O)cc1 (stereo not shown) [Compound 22b]
Outgoing: 49 ± 7 % of Vehicle

Incoming: Try this compound next: CCOc1ccc(/C=C2\SC(=O)N(Cc3ccc(C(=O)OC(C)(C)C)cc3)C2=O)cc1 [Compound 28p]
Outgoing: 100 ± 6 % of Vehicle

Incoming: Try this compound next: CCOc1ccc(/C=C2\SC(=O)N(C[C@H](N)C(=O)OC)C2=O)cc1 [Compound 22d]
Outgoing: 87 ± 4 % of Vehicle

Incoming: Try this compound next: NCCN1C(=O)S/C(=C\c2ccccc2OCc2ccccc2)C1=O [Compound 30k]
Outgoing: 0.6 ± 0.1 % of Vehicle

Incoming: Try this compound next: CCOc1ccc(/C=C2\SC(=O)N(C(CN)CN)C2=O)cc1 [Compound 22e]
Outgoing: 62 ± 2 % of Vehicle

Incoming: Try this compound next: CCOc1ccc(/C=C2\SC(=O)N(CCNC)C2=O)cc1 [Compound 23a]
Outgoing: 85 ± 4 % of Vehicle

----------
- System: RPMI-7951 melanoma cells
- test-details: Cell proliferation WST-1 assay, single dose (Example 4)
- Assay type: cell-based
- test-settings: 100 μM, 48 hours
Measured Cell Viability (% of Vehicle) RPMI-7951 values are reported for all entries that follow.

A selection of reference data follows.
| molecule | target-desc | Cell Viability (% of Vehicle) RPMI-7951 |
| --- | --- | --- |
| N#Cc1ccc(COc2ccccc2/C=C2\SC(=O)N(CCN)C2=O)cc1 [Compound 30l] | RPMI-7951 melanoma cells | 0.6 ± 0.03 % of Vehicle |
| NCCN1C(=O)S/C(=C\c2ccccc2O)C1=O [Compound 30i] | RPMI-7951 melanoma cells | 102 ± 10 % of Vehicle |

Proceed to the following item.
Incoming: Give the reported Cell Viability (% of Vehicle) RPMI-7951 for `CCOc1ccc(/C=C/C(=O)NCCN)cc1` (system: RPMI-7951 melanoma cells).
Outgoing: 93 ± 9 % of Vehicle

----------
- Tested on: HeLa cervical carcinoma cells
- test-details: Cell proliferation WST-1 assay, single dose (Example 4)
- Format: cell-based
- test-settings: 100 μM, 48 hours
readout-type: Cell Viability (% of Vehicle) HeLa

| compound | target-desc | Cell Viability (% of Vehicle) HeLa |
| --- | --- | --- |
| CCOc1ccc(/C=C2\SC(=O)N(Cc3ccc([N+](=O)[O-])cc3)C2=O)cc1 [Compound 28n] | HeLa cervical carcinoma cells | 97 ± 9 % of Vehicle |
| Cc1ccc(/C=C2\SC(=O)N(CCN)C2=O)cc1 [Compound 30d] | HeLa cervical carcinoma cells | 54 ± 3 % of Vehicle |

Proceed to the following item.
Incoming: Would you kindly share the measured Cell Viability (% of Vehicle) HeLa for CCOc1ccc(/C=C2\SC(=O)N(CCNC(=O)C(F)(F)F)C2=O)cc1 [Compound 25b] ?
Outgoing: 98 ± 11 % of Vehicle

----------
Measured Cell Viability (% of Vehicle) SK-MEL-28 values are reported for all entries that follow.
- Tested on: SK-MEL-28 melanoma cells
- test-details: Cell proliferation WST-1 assay, single dose (Example 4)
- Type: cell-based
- test-settings: 100 μM, 48 hours

| compound | target-desc | Cell Viability (% of Vehicle) SK-MEL-28 |
| --- | --- | --- |
| CCOc1ccc(/C=C2\SC(=O)N(Cc3ccncc3)C2=O)cc1 [Compound 28l] | SK-MEL-28 melanoma cells | 79 ± 3 % of Vehicle |
| CCOc1ccc(/C=C2\SC(=O)N(CCNCC(C)C)C2=O)cc1 [Compound 23c] | SK-MEL-28 melanoma cells | 1.3 ± 0.1 % of Vehicle |
| CCOc1ccc(/C=C2\SC(=O)N(CCNS(=O)(=O)c3cn(C)cn3)C2=O)cc1 [Compound 27c] | SK-MEL-28 melanoma cells | 92 ± 5 % of Vehicle |
| CCOc1ccc(/C=C2\SC(=O)N(CCNC(=O)OC)C2=O)cc1 [Compound 26a] | SK-MEL-28 melanoma cells | 88 ± 3 % of Vehicle |

Incoming: Would you kindly share the measured Cell Viability (% of Vehicle) SK-MEL-28 for N#Cc1ccc(COc2ccccc2/C=C2\SC(=O)N(CCN)C2=O)cc1 [Compound 30l] ?
Outgoing: 0.5 ± 0.01 % of Vehicle

Incoming: Try this compound next: CCOc1ccc(/C=C2\SC(=O)N(CCNS(C)(=O)=O)C2=O)cc1 [Compound 27a]
Outgoing: 87 ± 2 % of Vehicle
